Biological target: T1, HLA-B07:02 (human)
T1 construct: Stability assay: E. coli-expressed biotinylated heavy chain with 125I-labelled b2m; MS: BAP-tagged HLA in HEK293T cells; Treated as one molecule
Test: competition vs radiolabeled peptide on purified HLA; IC50 corrected for peptide concentration
measured.parameter: IC50 (µM)

MFATLQRSSL | 0.267

1: KPKRDGYMFL
2: FATLQRSSL
Asked: For the two items 1 and 2 , which reports the higher IC50 value? State the label of the item chosen.
Given back: 1

1: GPPARVPAV
2: KPKRDGYMF
Asked: // compare: 1 vs 2 , metric IC50, want the smaller I would appreciate it if you answered with the label of your choice.
Given back: 2
(2: 0.0282 µM, 1: 0.221 µM)
